Provide the reported viability, T/C of each item.
tested on: 171881-019-R-J1-PDC tumor spheroid viability; test: Anticancer human tumor 171881-019-R-J1-PDC patient-derived invasive breast carcinoma cell line growth inhibition [PI3K]; conditions: second compound 0.316 µM; first compound 0.00949 µM; stronger effect = lower value; spheroids with HUVEC and MSC

Which value of viability, T/C has been reported for Cn1cnc2c(F)c(Nc3ccc(Br)cc3Cl)c(C(=O)NOCCO)cc21 + Cc1nc(NC(=O)N2CCCC2C(N)=O)sc1-c1ccnc(C(C)(C)C(F)(F)F)c1 in the records?
45.7%

Which value of viability, T/C has been reported for Cn1cnc2c(F)c(Nc3ccc(Br)cc3Cl)c(C(=O)NOCCO)cc21 + COc1c(OCCCN2CCOCC2)ccc2c3n(c(=NC(=O)c4cnc(N)nc4)nc12)CCN3 in the records?
1.87%

Which value of viability, T/C has been reported for Cn1cnc2c(F)c(Nc3ccc(Br)cc3Cl)c(C(=O)NOCCO)cc21 + CC(Nc1ncnc2nc[nH]c12)c1cc2cccc(Cl)c2c(=O)n1-c1ccccc1 in the records?
96.6%

Which value of viability, T/C has been reported for Cn1cnc2c(F)c(Nc3ccc(Br)cc3Cl)c(C(=O)NOCCO)cc21 + CC(Nc1ccc2c(c1)OCCn1cc(N3C(=O)OCC3C(F)F)nc1-2)C(N)=O in the records?
20.9%

---

system: 171881-019-R-J1-PDC tumor spheroid viability; experiment: Anticancer human tumor 171881-019-R-J1-PDC cell line growth inhibition [PI3K]; conditions: second compound 0.0316 µM; first compound 0.00316 µM; stronger effect = lower value; spheroids with HUVEC and MSC;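 further: spheroids exposed to compound for 7 days before viability read; 100% = DMSO vehicle-treated spheroids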
Note to self: use true only for viability, T/C readings below 80%; a reading exactly at 80% still gets false.

Please state whether viability, T/C is below 80% for CCN1CCN(Cc2ccc(Nc3ncc(F)c(-c4cc(F)c5nc(C)n(C(C)C)c5c4)n3)nc2)CC1 + CC(Nc1ncnc2nc[nH]c12)c1cc2cccc(Cl)c2c(=O)n1-c1ccccc1
false

Please state whether viability, T/C is below 80% for CCN1CCN(Cc2ccc(Nc3ncc(F)c(-c4cc(F)c5nc(C)n(C(C)C)c5c4)n3)nc2)CC1 + COc1c(OCCCN2CCOCC2)ccc2c3n(c(=NC(=O)c4cnc(N)nc4)nc12)CCN3
true

Please state whether viability, T/C is below 80% for Cn1ncnc1[C@H]1c2n[nH]c(=O)c3cc(F)cc(c23)N[C@@H]1c1ccc(F)cc1 + CC(Nc1ccc2c(c1)OCCn1cc(N3C(=O)OCC3C(F)F)nc1-2)C(N)=O
true

Please state whether viability, T/C is below 80% for Cn1ncnc1[C@H]1c2n[nH]c(=O)c3cc(F)cc(c23)N[C@@H]1c1ccc(F)cc1 + Cc1nc(NC(=O)N2CCCC2C(N)=O)sc1-c1ccnc(C(C)(C)C(F)(F)F)c1
false

Please state whether viability, T/C is below 80% for Cn1ncnc1[C@H]1c2n[nH]c(=O)c3cc(F)cc(c23)N[C@@H]1c1ccc(F)cc1 + COc1c(OCCCN2CCOCC2)ccc2c3n(c(=NC(=O)c4cnc(N)nc4)nc12)CCN3
true

Please state whether viability, T/C is below 80% for Cn1ncnc1[C@H]1c2n[nH]c(=O)c3cc(F)cc(c23)N[C@@H]1c1ccc(F)cc1 + CC(Nc1ncnc2nc[nH]c12)c1cc2cccc(Cl)c2c(=O)n1-c1ccccc1
false

Please state whether viability, T/C is below 80% for CC(C)n1nc(-c2ccc3oc(N)nc3c2)c2c(N)ncnc21 + CC(Nc1ccc2c(c1)OCCn1cc(N3C(=O)OCC3C(F)F)nc1-2)C(N)=O
true

Please state whether viability, T/C is below 80% for CC(=O)c1c(C)c2cnc(Nc3ccc(N4CCNCC4)cn3)nc2n(C2CCCC2)c1=O + Cc1nc(NC(=O)N2CCCC2C(N)=O)sc1-c1ccnc(C(C)(C)C(F)(F)F)c1
false

Please state whether viability, T/C is below 80% for CCN1CCN(Cc2ccc(Nc3ncc(F)c(-c4cc(F)c5nc(C)n(C(C)C)c5c4)n3)nc2)CC1 + Cc1nc(NC(=O)N2CCCC2C(N)=O)sc1-c1ccnc(C(C)(C)C(F)(F)F)c1
false

Please state whether viability, T/C is below 80% for CC(C)n1nc(-c2ccc3oc(N)nc3c2)c2c(N)ncnc21 + Cc1nc(NC(=O)N2CCCC2C(N)=O)sc1-c1ccnc(C(C)(C)C(F)(F)F)c1
true

Please state whether viability, T/C is below 80% for CC(=O)c1c(C)c2cnc(Nc3ccc(N4CCNCC4)cn3)nc2n(C2CCCC2)c1=O + COc1c(OCCCN2CCOCC2)ccc2c3n(c(=NC(=O)c4cnc(N)nc4)nc12)CCN3
true
